Examples of compounds with documented Km follow.
target: human UMP-CMP kinase (hUCK) (Homo sapiens, UniProt P30085); assay: coupled spectrophotometric NMP kinase assay, hUCK; type: biochemical; conditions: 37°C, 1 mM ATP
Sequence (P30085 whole entry): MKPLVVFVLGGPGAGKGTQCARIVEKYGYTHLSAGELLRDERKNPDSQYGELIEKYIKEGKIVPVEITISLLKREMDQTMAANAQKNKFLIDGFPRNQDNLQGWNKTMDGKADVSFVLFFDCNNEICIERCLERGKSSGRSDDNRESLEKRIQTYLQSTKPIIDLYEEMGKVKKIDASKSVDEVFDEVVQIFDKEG
reported.property: Km (µM)

• Nc1ccn([C@H]2C[C@H](O)[C@@H](COP(=O)(O)O)O2)c(=O)n1 = 1000
• O=c1ccn([C@@H]2O[C@H](COP(=O)(O)O)[C@@H](O)[C@H]2O)c(=O)[nH]1 = 50
• [N-]=[N+]=N[C@@H]1[C@H](O)[C@@H](COP(=O)(O)O)O[C@H]1n1ccc(=O)[nH]c1=O = 900
• O=c1ccn([C@H]2C[C@H](O)[C@@H](COP(=O)(O)O)O2)c(=O)[nH]1 = 1300

----------
molecular target: hTMPK (Homo sapiens); assay: fluorescence competition assay with MABA-dTDP; type: binding; details: read-out: dissociation constant KD; calculated from IC50 with Equation (1)
Sequence (P23919 whole entry): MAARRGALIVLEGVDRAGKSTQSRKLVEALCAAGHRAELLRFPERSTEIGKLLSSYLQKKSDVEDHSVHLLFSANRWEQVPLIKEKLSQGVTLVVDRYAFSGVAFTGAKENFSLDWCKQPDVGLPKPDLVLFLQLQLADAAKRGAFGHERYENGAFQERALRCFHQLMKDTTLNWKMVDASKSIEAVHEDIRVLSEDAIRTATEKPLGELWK
pKd: −log10 of the molar value.
reported.property: pKd

* O=c1ccn([C@H]2C[C@H](O)[C@@H](COP(=O)(O)O)O2)c(=O)[nH]1 | 3.82

----------
molecular target: UniProtKB P30085; assay: coupled spectrophotometric NMP kinase assay, hUCK; type: biochemical; conditions: relative to kcat of D-CMP (100 = kcat 130 s^−1)
reported.property: Relative Vmax

• O=c1ccn([C@H]2C[C@H](O)[C@@H](COP(=O)(O)O)O2)c(=O)[nH]1 = 5.1 ± 0.5%
• O=c1ccn([C@@H]2O[C@H](COP(=O)(O)O)[C@@H](O)[C@H]2O)c(=O)[nH]1 = 100%
• [N-]=[N+]=N[C@@H]1[C@H](O)[C@@H](COP(=O)(O)O)O[C@H]1n1ccc(=O)[nH]c1=O = 89 ± 6%
• Nc1ccn([C@H]2C[C@H](O)[C@@H](COP(=O)(O)O)O2)c(=O)n1 = 61 ± 4%

----------
biological target: hTMPK (Homo sapiens); test: fluorescence competition assay with MABA-dTDP; assay type: binding
pKd: −log10 of the molar value.
reported.property: pKd

- Cc1cn([C@@H]2C[C@@H](O)[C@H](CO)O2)c(=O)[nH]c1=O [L-dT, β-L-thymidine]: 3.35

Cited source: paper PMC1950558
